From: the supplement of paper PMC11061612

- System: MHH-PREB-1 (B-Cell Non-Hodgkin's Lymphoma)
- measurementDescription: Bliss excess, mean over the matrix (fraction); higher = more synergy

| molecule | Bliss excess |
| --- | --- |
| NC1(C(=O)N[C@@H](CCO)c2ccc(Cl)cc2)CCN(c2ncnc3[nH]ccc23)CC1 [Capivasertib] + CCN(CCO)CCCOc1ccc2c(Nc3cc(CC(=O)Nc4cccc(F)c4)[nH]n3)ncnc2c1 [AZD2811] (first compound max 10 µM, 7x7, partner max 1 µM) | -0.0306 |
| CN(CCO)CC[C@H](CSc1ccccc1)Nc1ccc(S(=O)(=O)NC(=O)c2ccc(N3CCC([C@@H](O)c4ccccc4-c4ccc(Cl)cc4)CC3)cc2)cc1S(=O)(=O)C(F)(F)F [AZD4320] + Cc1cc2ncnn2cc1Nc1ncc2c(n1)n(C1CCOCC1)c(=O)n2C [AZD7648] (first compound max 1 µM, 7x7, partner max 10 µM) | -0.0041 |
| C=CCn1c(=O)c2cnc(Nc3ccc(N4CCN(C)CC4)cc3)nc2n1-c1cccc(C(C)(C)O)n1 [AZD1775] + C1CN(CCC1(C(=O)N[C@@H](CCO)C2=CC=C(C=C2)Cl)N)C3=NC=NC4=C3C=CN4 [Capivasertib] (first compound max 3 µM, partner max 3 µM) | -0.005 |

====

Recorded combination Emax by entry
- Test system: Mewo (Melanoma)
- measurementDescription: combination Emax (second highest fraction inhibited in the dose matrix, 72 h); higher = more inhibition; extreme values may be limits of the assay

| compound | combination Emax |
| --- | --- |
| O=C(c1cc(Cc2n[nH]c(=O)c3ccccc23)ccc1F)N1CCN(C(=O)C2CC2)CC1 [Olaparib] + CC1(C)CCC(CN2CCN(c3ccc(C(=O)NS(=O)(=O)c4ccc(NCC5CCOCC5)c([N+](=O)[O-])c4)c(Oc4cnc5[nH]ccc5c4)c3)CC2)=C(c2ccc(Cl)cc2)C1 [Venetoclax] (first compound max 10 µM, 7x7, partner max 1 µM) | 0.0337 |
| Cc1cc2ncnn2cc1Nc1ncc2c(n1)n(C1CCOCC1)c(=O)n2C [AZD7648] + CN(C)CCCOc1ccc(-c2ccc3ncc4c(c3c2)n(C2CCOCC2)c(=O)n4C)cn1 [AZD0156] (first compound max 10 µM, 7x7, partner max 1 µM) | 0.285 |

====

Recorded combination Emax by entry
- System: OVCAR-8 (Ovarian Carcinoma)
- measurementDescription: combination Emax (second highest fraction inhibited in the dose matrix, 72 h); higher = more inhibition; extreme values may be limits of the assay
testReadout: combination Emax

| compound | resultValue |
| --- | --- |
| C=CCn1c(=O)c2cnc(Nc3ccc(N4CCN(C)CC4)cc3)nc2n1-c1cccc(C(C)(C)O)n1 [AZD1775] + O=C(c1cc(Cc2n[nH]c(=O)c3ccccc23)ccc1F)N1CCN(C(=O)C2CC2)CC1 [Olaparib] (first compound max 1 µM, partner max 10 µM) | 0.797 |
| Cn1cnc2c(F)c(Nc3ccc(Br)cc3Cl)c(C(=O)NOCCO)cc21 [Selumetinib] + CC(C)n1c(=O)n(C)c2cnc3cc(F)c(-c4ccc(OCCCN5CCCCC5)nc4)cc3c21 [AZD1390] (first compound max 10 µM, 7x7, partner max 0.3 µM) | 0.132 |
| CN(CCO)CC[C@H](CSc1ccccc1)Nc1ccc(S(=O)(=O)NC(=O)c2ccc(N3CCC([C@@H](O)c4ccccc4-c4ccc(Cl)cc4)CC3)cc2)cc1S(=O)(=O)C(F)(F)F [AZD4320] + C=CCn1c(=O)c2cnc(Nc3ccc(N4CCN(C)CC4)cc3)nc2n1-c1cccc(C(C)(C)O)n1 [AZD1775] (first compound max 1 µM, partner max 1 µM) | 0.908 |
| Cc1cc2ncnn2cc1Nc1ncc2c(n1)n(C1CCOCC1)c(=O)n2C [AZD7648] + O=C(c1cc(Cc2n[nH]c(=O)c3ccccc23)ccc1F)N1CCN(C(=O)C2CC2)CC1 [Olaparib] (first compound max 10 µM, 7x7, partner max 10 µM) | 0.344 |
| CC1(C)CCC(CN2CCN(c3ccc(C(=O)NS(=O)(=O)c4ccc(NCC5CCOCC5)c([N+](=O)[O-])c4)c(Oc4cnc5[nH]ccc5c4)c3)CC2)=C(c2ccc(Cl)cc2)C1 [Venetoclax] + C1CN(CCC1(C(=O)N[C@@H](CCO)C2=CC=C(C=C2)Cl)N)C3=NC=NC4=C3C=CN4 [Capivasertib] (first compound max 1 µM, 7x7, partner max 3 µM) | 0.184 |
| COc1nnc2ccc(N3CCC(c4ccc(OCCN5CCN(C)C(=O)[C@H]5C)cc4)CC3)nn12 [AZD5153] + C[C@@H]1COCCN1C2=NC(=NC(=C2)C3(CC3)[S@](=N)(=O)C)C4=C5C=CNC5=NC=C4 [AZD6738] (first compound max 1 µM, 7x7, partner max 10 µM) | 0.924 |
| COc1cccc2c1C(=O)c1c(O)c3c(c(O)c1C2=O)C[C@@](O)(C(=O)CO)C[C@@H]3O[C@H]1C[C@H](N)[C@H](O)[C@H](C)O1 [Doxorubicin] + Cc1cc2ncnn2cc1Nc1ncc2c(n1)n(C1CCOCC1)c(=O)n2C [AZD7648] (first compound max 1 µM, 7x7, partner max 10 µM) | 0.923 |
| Cc1cc2ncnn2cc1Nc1ncc2c(n1)n(C1CCOCC1)c(=O)n2C [AZD7648] + CCN(CCO)CCCOc1ccc2c(Nc3cc(CC(=O)Nc4cccc(F)c4)[nH]n3)ncnc2c1 [AZD2811] (first compound max 10 µM, 7x7, partner max 1 µM) | 0.311 |
| COc1cccc(OCCCN)c1-c1cc(Nc2cnc(C#N)cn2)n[nH]1 [Prexasertib] + Cc1cc2ncnn2cc1Nc1ncc2c(n1)n(C1CCOCC1)c(=O)n2C [AZD7648] (first compound max 1 µM, 7x7, partner max 10 µM) | 0.984 |
| CN(CCO)CC[C@H](CSc1ccccc1)Nc1ccc(S(=O)(=O)NC(=O)c2ccc(N3CCC([C@@H](O)c4ccccc4-c4ccc(Cl)cc4)CC3)cc2)cc1S(=O)(=O)C(F)(F)F [AZD4320] + Cn1cnc2c(F)c(Nc3ccc(Br)cc3Cl)c(C(=O)NOCCO)cc21 [Selumetinib] (first compound max 1 µM, 7x7, partner max 3 µM) | 0.498 |
| CN(CCO)CC[C@H](CSc1ccccc1)Nc1ccc(S(=O)(=O)NC(=O)c2ccc(N3CCC([C@@H](O)c4ccccc4-c4ccc(Cl)cc4)CC3)cc2)cc1S(=O)(=O)C(F)(F)F [AZD4320] + Cc1cc2ncnn2cc1Nc1ncc2c(n1)n(C1CCOCC1)c(=O)n2C [AZD7648] (first compound max 1 µM, 7x7, partner max 10 µM) | 0.14 |
| Cc1nc(Nc2ncc(C(=O)Nc3c(C)cccc3Cl)s2)cc(N2CCN(CCO)CC2)n1 [Dasatinib] + CC(=O)Nc1cccc(-n2c(=O)n(C3CC3)c(=O)c3c(Nc4ccc(I)cc4F)n(C)c(=O)c(C)c32)c1 [Trametinib] (first compound max 2 µM, 7x7, partner max 1 µM) | 0.671 |
| Cc1c2c(nn1C)CSCc1cc(n(C)n1)CSc1cc(c3ccccc3c1)OCCCc1c(C(=O)O)n(C)c3c-2c(Cl)ccc13 [AZD5991] + C[C@@H](Nc1cc(F)cc(F)c1)c1cc(C(=O)N(C)C)cc2c(=O)cc(N3CCOCC3)oc12 [AZD8186] (first compound max 1 µM, 7x7, partner max 3 µM) | 0.268 |

====

- Test system: PCI-30 (Head and Neck Carcinoma)
- measurementDescription: Bliss excess, mean over the matrix (fraction); higher = more synergy

| molecule | Bliss excess |
| --- | --- |
| Cc1c2c(nn1C)CSCc1cc(n(C)n1)CSc1cc(c3ccccc3c1)OCCCc1c(C(=O)O)n(C)c3c-2c(Cl)ccc13 [AZD5991] + Cn1cnc2c(F)c(Nc3ccc(Br)cc3Cl)c(C(=O)NOCCO)cc21 [Selumetinib] (first compound max 1 µM, 7x7, partner max 3 µM) | -0.0352 |
| CS(=O)(=O)CCNCc1ccc(-c2ccc3ncnc(Nc4ccc(OCc5cccc(F)c5)c(Cl)c4)c3c2)o1 [Lapatinib] + Cn1cnc2c(F)c(Nc3ccc(Br)cc3Cl)c(C(=O)NOCCO)cc21 [Selumetinib] (first compound max 10 µM, 7x7, partner max 10 µM) | 0.0027 |
| Cc1cc2ncnn2cc1Nc1ncc2c(n1)n(C1CCOCC1)c(=O)n2C [AZD7648] + C=CCn1c(=O)c2cnc(Nc3ccc(N4CCN(C)CC4)cc3)nc2n1-c1cccc(C(C)(C)O)n1 [AZD1775] (first compound max 10 µM, partner max 1 µM) | 0.0419 |
| C[C@@H](Oc1cc(-c2cnn(C3CCNCC3)c2)cnc1N)c1c(Cl)ccc(F)c1Cl [Crizotinib] + CC1=C(C(=CC=C1)Cl)NC(=O)C2=CN=C(S2)NC3=CC(=NC(=N3)C)N4CCN(CC4)CCO [Dasatinib] (first compound max 10 µM, 7x7, partner max 2 µM) | 0.0685 |
| Cn1cnc2c(F)c(Nc3ccc(Br)cc3Cl)c(C(=O)NOCCO)cc21 [Selumetinib] + C=CCn1c(=O)c2cnc(Nc3ccc(N4CCN(C)CC4)cc3)nc2n1-c1cccc(C(C)(C)O)n1 [AZD1775] (first compound max 10 µM, partner max 1 µM) | -0.0183 |
| C[C@@H]1COCCN1c1cc(C2([S@](C)(=N)=O)CC2)nc(-c2ccnc3[nH]ccc23)n1 [AZD6738] + O=C(c1cc(Cc2n[nH]c(=O)c3ccccc23)ccc1F)N1CCN(C(=O)C2CC2)CC1 [Olaparib] (first compound max 10 µM, 7x7, partner max 10 µM) | -0.052 |
| CCN(CCO)CCCOc1ccc2c(Nc3cc(CC(=O)Nc4cccc(F)c4)[nH]n3)ncnc2c1 [AZD2811] + O=C(c1cc(Cc2n[nH]c(=O)c3ccccc23)ccc1F)N1CCN(C(=O)C2CC2)CC1 [Olaparib] (first compound max 1 µM, 7x7, partner max 10 µM) | -0.031 |
